Reported values of MIC for individual entries
test system: A. niger; test: MIC by tube dilution method; format: cell-based; conditions: Aspergillus niger, 168 h, 7 days at 25 °C, read-out: MIC
Reply with just the number (in µg/mL).

C/C(=N/c1nnc(-c2ccc([N+](=O)[O-])cc2Cl)s1)c1ccc(/N=N\c2c[nH]c3ccc([N+](=O)[O-])cc23)cc1    62.5

In plain terms, "C/C(=N/c1nnc(-c2ccc([N+](=O)[O-])cc2)s1)c1ccc(/N=N\c2c[nH]c3ccc([N+](=O)[O-])cc23)cc1" has a documented MIC of 62.5

response.value for "CCOC(=O)c1c(/N=C(/C)c2ccc(/N=N\c3c[nH]c4ccccc34)cc2)sc2c1CCCC2" (field: MIC) = 62.5

// "C/C(=N/c1ccc(C(=O)O)cc1)c1ccc(/N=N\c2c[nH]c3ccccc23)cc1" : MIC value = 62.5

Lab note: "C/C(=N/c1ncccn1)c1ccc(/N=N\c2c[nH]c3ccccc23)cc1" gave MIC of 62.5

For "C/C(=N/CCNc1cccc2ccccc12)c1ccc(/N=N\c2c[nH]c3ccccc23)cc1" the compound record lists MIC as 62.5

* * *

test system: K. pneumonia; experiment: Minimum bactericidal concentration (MBC); type: cell-based; details: Klebsiella pneumoniae
Each entry below carries its reported MBC.
Give just the numeric value; µg/mL need not be written.

Recorded MBC, per entry:
CCOC(=O)c1c(/N=C(/C)c2ccc(/N=N\c3c[nH]c4ccccc34)cc2)sc2c1CCCC2 [DS-2]    62.5
C/C(=N/c1ccc(Cl)cc1[N+](=O)[O-])c1ccc(/N=N\c2c[nH]c3ccccc23)cc1 [DS-13]    15.6
C/C(=N/c1ccc(S(=O)(=O)Nc2ccccn2)cc1)c1ccc(/N=N\c2c[nH]c3ccccc23)cc1 [DS-11]    31.2

C/C(=N/c1ncccn1)c1ccc(/N=N\c2c[nH]c3ccccc23)cc1 [DS-17] on K. pneumonia gives MBC = 15.6

Log: K. pneumonia, compound CCc1nnc(/N=C(/C)c2ccc(/N=N\c3c[nH]c4ccccc34)cc2)s1 [DS-7] , MBC = 16.2

For C/C(=N/c1nnc(-c2ccc([N+](=O)[O-])cc2)s1)c1ccc(/N=N\c2c[nH]c3ccc([N+](=O)[O-])cc23)cc1 [DS-5] on K. pneumonia, measured MBC was 15.6

CO/N=C(\C(=O)N[C@@H]1C(=O)N2C(C(=O)O)=C(COC(C)=O)CS[C@H]12)c1csc(N)n1 [CFT, cefotaxime, reference compound] tested on K. pneumonia gave MBC: 3.9

Entry C/C(=N/c1ccc(F)cc1)c1ccc(/N=N\c2c[nH]c3ccc([N+](=O)[O-])cc23)cc1 [DS-16] , tested on K. pneumonia, has a reported MBC of 31.2

// returns MBC for C/C(=N/c1nnc(-c2ccc([N+](=O)[O-])cc2Cl)s1)c1ccc(/N=N\c2c[nH]c3ccc([N+](=O)[O-])cc23)cc1 [DS-3] with K. pneumonia; value = 31.2

Measured on K. pneumonia, C/C(=N/CCNc1cccc2ccccc12)c1ccc(/N=N\c2c[nH]c3ccccc23)cc1 [DS-20] has a documented MBC of 15.6

Record O=C(O)c1cn(C2CC2)c2cc(N3CCNCC3)c(F)cc2c1=O [CPR, ciprofloxacin, reference compound] / K. pneumonia, MBC recorded as 7.81

Query CC(=O)NS(=O)(=O)c1ccc(/N=C(/C)c2ccc(/N=N\c3c[nH]c4ccc([N+](=O)[O-])cc34)cc2)cc1 [DS-15] on K. pneumonia; MBC returned: 31.2
